test: First-in-human Phase 1 study (safety, PK) in relapsed or refractory CLL; assay type: in vivo; details: human, plasma, oral, 100 mg, human CLL, Week 1 Day-3 single dose, Subject 3, 100 mg; read-out: t1/2 (converted)

{"SMILES_TEXT": "CC1(C)CCC(CN2CCN(c3ccc(C(=O)NS(=O)(=O)c4ccc(NCC5CCOCC5)c([N+](=O)[O-])c4)c(Oc4cnc5[nH]ccc5c4)c3)CC2)=C(c2ccc(Cl)cc2)C1", "half-life, h": 22.1}

###

assay: First-in-human Phase 1 study (safety, PK) in relapsed or refractory CLL; type: in vivo; conditions: human, plasma, oral, 200 mg, human CLL, Week 1 Day-3 single dose, Subject 1, 200 mg; read-out: AUC (AUCINF)
READOUT: AUC(0-inf) (ng·h/mL)

{"SMILES_TEXT": "CC1(C)CCC(CN2CCN(c3ccc(C(=O)NS(=O)(=O)c4ccc(NCC5CCOCC5)c([N+](=O)[O-])c4)c(Oc4cnc5[nH]ccc5c4)c3)CC2)=C(c2ccc(Cl)cc2)C1", "RECORDED_RESULT": 23300}
